target: HLA-A*02:01; test: IEDB peptide-MHC binding, purified MHC/competitive/fluorescence; bounds were set here for any values at or beyond the usual limits of such assays; conditions: source organism: Sudan ebolavirus
pIC50: −log10 of the molar value.
OBSERVED PROPERTY: pIC50

Example results:
CONSTRUCT SEQUENCE: YTENTSSYY
pIC50: ≤ 3.67
--
CONSTRUCT SEQUENCE: KAIDFLLRR
pIC50: ≤ 4.00
--
CONSTRUCT SEQUENCE: QLKSVGLNL
pIC50: 5.12
--
CONSTRUCT SEQUENCE: KNSPGMVPL
pIC50: ≤ 4.00
--
CONSTRUCT SEQUENCE: QFLFQLNDT
pIC50: 4.97

Input line: # get_value(readout='pIC50', item= IILFQKAFS )
Output line: 4.17

Input line: Moving on to the next sequence: FRSGVPPKV
Output line: ≤ 3.77

Input line: Then this sequence: MEGLSLLQL
Output line: ≤ 4.05

Attribution: the Immune Epitope Database (IEDB)
